System: Madurella mycetomatis MM55
experimental_details: growth relative to untreated control; higher = less inhibition, active = 20 or less
measurement_setup: 25 µM
outcome_measure: growth

Some molecules with recorded growth:
Nc1nonc1-c1nc2c(-c3cccc(Cl)c3)nccc2n1CCCNC(=O)Cc1ccc(Cl)cc1
80.5% (inactive)
Cn1cnc2c(F)c(Nc3ccc(Br)cc3Cl)c(C(=O)NOCCO)cc21
110% (inactive)
COc1ccc(-c2nn3c(-c4ccco4)nnc3s2)cc1OC
97% (inactive)

Note: attention shifts to another entry.
Lookup result for CCOc1ccc(C=C2NCCc3cc(OCC)c(OCC)cc32)cc1OCC ; measured growth: 73.2% (inactive)

----------
Tested on: Falciformispora senegalensis CBS197.79
experimental_details: growth relative to untreated control; higher = less inhibition, active = 20 or less
measurement_setup: 100 µM
growth reference
Just the number please, in %, no unit attached.

// growth (Falciformispora senegalensis CBS197.79) for CCN(CC)Cc1cc(Nc2ccnc3cc(Cl)ccc23)ccc1O = 88.3

Item CC(C)C(=O)OCC(=O)[C@@]12OC(C3CCCCC3)O[C@@H]1C[C@H]1[C@@H]3CCC4=CC(=O)C=C[C@]4(C)[C@H]3[C@@H](O)C[C@@]12C (stereo partly drawn) ; assay system Falciformispora senegalensis CBS197.79; growth reported as 105

growth value, target or system Falciformispora senegalensis CBS197.79, for CCN1CCN(C2CCN(C(=O)COc3ccc(-c4ccccc4F)cc3)CC2)CC1 : 6

So the reported growth for Nc1nc(Nc2ccc3c(c2)CC[C@@H](N2CCCC2)CC3)nn1-c1cc2c(nn1)-c1ccccc1CCC2 , on Falciformispora senegalensis CBS197.79, turned out to be 5.2

Record C=CC(C)(C)C1=C(O)C(=O)c2ccccc2C1=O ; system Falciformispora senegalensis CBS197.79; growth = 101

Item: CCN(CC)C(=O)/C(C#N)=C/c1cc(O)c(O)c([N+](=O)[O-])c1 | System: Falciformispora senegalensis CBS197.79 | growth: 99.4

Let me check: CC(N)CCn1c(Nc2cc(Cl)cc(C(F)(F)F)c2)nc2cnc(NC3CCCC3)nc21 (stereo not drawn) , system Falciformispora senegalensis CBS197.79, measured growth is 17.2

Response field growth (Falciformispora senegalensis CBS197.79) for item CN[C@@H]1[C@H](O)[C@H](NC)[C@H]2O[C@@]3(O)C(=O)C[C@@H](C)O[C@H]3O[C@@H]2[C@H]1O : 102

Fill in: Falciformispora senegalensis CBS197.79 growth for Cc1nc2ccccn2c1C1(O)C(=O)Nc2c(Cl)cc(Cl)cc21 (stereo not drawn) = 118

Response field growth (Falciformispora senegalensis CBS197.79) for item C[C@@H]1CS/C(=N\NC(=O)C(=O)[C@@H](NC(=O)C2CCCCCC2)C2CCOCC2)N1C : 98.8

For O=C(Nc1ccc([N+](=O)[O-])cc1Cl)c1cc(Cl)ccc1O on Falciformispora senegalensis CBS197.79, measured growth was 0

Result for Cn1cc(CN2CCc3c(c(C(=O)NCc4nccs4)nn3Cc3ccccc3)C2)c2ccccc21 , tested on Falciformispora senegalensis CBS197.79, growth: 101

Reported Falciformispora senegalensis CBS197.79 growth for item C[C@@H](c1nc(-c2ccc(C#N)cc2)cs1)[C@](O)(Cn1cncn1)c1ccc(F)cc1F was 52.3

----------
System: Falciformispora senegalensis CBS197.79
experimental_details: growth relative to untreated control; higher = less inhibition, active = 20 or less
measurement_setup: 100 µM
growth overview
Write the number in % without appending the unit.

OCCN1CCN(CCCN2c3ccccc3Sc3ccc(C(F)(F)F)cc32)CC1
8.28
CO[C@H]1C[C@@H]2CC[C@@H](C)[C@@](O)(O2)C(=O)C(=O)N2CCCC[C@H]2C(=O)O[C@H]([C@H](C)C[C@@H]2CC[C@@H](O)[C@H](OC)C2)CC(=O)[C@H](C)/C=C(\C)[C@@H](O)[C@@H](OC)C(=O)[C@H](C)C[C@H](C)/C=C/C=C/C=C/1C
105
NC(=O)c1nc(F)cnc1O
102
COc1ccc(-c2cnc3c(-c4ccccc4)c(-c4ccccc4)nn3c2N)cc1OC
83.3

We now examine a further compound.
// growth value for CO[C@H]1C[C@H](O[C@@H]2/C(C)=C/C[C@@H]3C[C@@H](C[C@]4(CC[C@H](C)[C@@H](C5CCCCC5)O4)O3)OC(=O)[C@@H]3C=C(C)/C(=N/O)[C@H]4OC/C(=C\C=C\[C@@H]2C)[C@]43O)O[C@@H](C)[C@@H]1O : 89.3

----------
System: Madurella mycetomatis MM55
experimental_details: growth relative to untreated control; higher = less inhibition, active = 20 or less
measurement_setup: 25 µM
Classify as follows. Reported growth greater than or equal to 50%: yes. Reported growth below: no.

O=C(Nc1ccc(Cl)c(C(F)(F)F)c1)Nc1ccc(Cl)c(C(F)(F)F)c1
no
CC(C)CN(C[C@@H](O)[C@H](Cc1ccccc1)NC(=O)O[C@H]1CO[C@H]2OCC[C@H]21)S(=O)(=O)c1ccc(N)cc1
yes
O=C(O)c1ccc2c(c1)nc(Nc1cccc(Cl)c1)c1ccncc12
yes
CN(c1ncc2nc(Nc3cc(Cl)cc(C(F)(F)F)c3)n(C3CCNCC3)c2n1)C1CC1
yes
OCCN1CCc2nc(NCc3ccc(F)cc3F)nc(NC34CC(C3)C4)c2CC1
no
OC1(CN2CCC(Oc3cccc(C(F)(F)F)c3)CC2)CCNC1 (configuration not stated)
no

Attention now shifts to the item below.
Could you tell me if the measured growth of N#CC[C@H](C1CCCC1)n1cc(-c2ncnc3[nH]ccc23)cn1 reaches 50% or more?
yes

----------
System: Madurella mycetomatis MM55
experimental_details: growth relative to untreated control; higher = less inhibition, active = 20 or less
measurement_setup: 100 µM
Reported growth values for the following compounds.
Supply the numeric figure in %, leaving out any unit text.

CC[C@H](C)[C@H]1O[C@]2(C=C[C@@H]1C)C[C@@H]1C[C@@H](C/C=C(\C)[C@@H](O[C@H]3C[C@H](OC)[C@@H](O[C@H]4C[C@H](OC)[C@H](NC(C)=O)[C@H](C)O4)[C@H](C)O3)[C@@H](C)/C=C/C=C3\CO[C@@H]4[C@H](O)C(C)=C[C@@H](C(=O)O1)[C@]34O)O2 yielded growth of 116

Entry Cc1cccc(C=NNc2cc(N3CCOCC3)nc(OCCc3ccccn3)n2)c1 ; growth = 10.4

The compound listed as COc1ccc2cc1Oc1ccc(cc1)C[C@H]1c3cc(c(OC)cc3CCN1C)Oc1c(O)c(OC)cc3c1[C@@H](C2)N(C)CC3 has a reported growth of 5.12

For record CN(C)CCOc1ccc(/C(=C(/CCCl)c2ccccc2)c2ccccc2)cc1 the listed growth is 6.66

Entry under test: c1cc(N2CCC(CN3CCOCC3)CC2)c2sccc2n1 . Its growth was 31.4

FC(F)(F)c1cc(Cl)cc(Nc2nc3cnc(NCC4CC4)nc3n2C2CCNCC2)c1 yielded growth of 4.76

----------
System: Falciformispora senegalensis CBS197.79
experimental_details: growth relative to untreated control; higher = less inhibition, active = 20 or less
measurement_setup: 25 µM
Collected growth values appear next to each entry.
Entry rule: numbers only, all in %.

Known growth results, listed for orientation:
Cc1ccc(-c2noc(-c3ccccc3)n2)cc1
90.2
COc1ccc(C(=O)N2CCC3(CC2)C(=O)N(CC(=O)NCC2CCCCC2)CN3c2ccccc2)c(OC)c1
91.9

Could you now look at the following molecule, please?
Consider O=C(Nc1cccc(-c2cc3nc(Nc4ccc(N5CCOCC5)cc4)ncc3[nH]2)c1)C1CC1 . Its measured growth is 89.7

----------
Test system: Madurella mycetomatis MM55
experimental_details: growth relative to untreated control; higher = less inhibition, active = 20 or less
measurement_setup: 100 µM
Classes to choose from: 1 (yes) for active, 0 (no) for inactive

Look over these answered cases.
CC(C)(C)NC(=O)N[C@H](C(=O)N1C[C@H]2[C@@H]([C@H]1C(=O)NC(CC1CCC1)C(=O)C(N)=O)C2(C)C)C(C)(C)C (some centres undefined)
0 (no)
Clc1ccc(Nc2nc3cnc(NC4CC4)nc3n2C2CCNCC2)cc1Cl
0 (no)
Cc1ccc(C)c2sc(N(CCCn3ccnc3)C(=O)c3ccco3)nc12
1 (yes)
CCN(CC)Cc1cc(Nc2ccnc3cc(Cl)ccc23)ccc1O
0 (no)
C[C@@H]1CCCN1CCc1cc2cc(-c3ccc(C#N)cc3)ccc2o1
1 (yes)

Please state the recorded outcome for this compound: Cn1cc(CN2CCc3c(c(C(=O)NCc4nccs4)nn3Cc3ccccc3)C2)c2ccccc21
0 (no)

Please share the test call associated with C[C@H](/N=C(\N)c1cc2c(F)cc(F)cc2[nH]1)c1ccccc1 .
1 (yes)

What classification did CC(C)NCc1cccc(-c2ccc(NC(=O)c3cccc(C#N)c3)cc2)c1 end up with in this test?
1 (yes)

How was Cc1cccc2c1N(C(=O)c1cc(Br)nn1-c1ncccc1Cl)CN(C(C)C)C2=O classified in this test?
0 (no)

Assay outcome for O=C(c1ccc(Nc2nccc(-c3ccc(C(F)(F)F)c(Cl)c3)n2)cc1)N1CC(O)C1 : what was it?
0 (no)

Hi, do you know how CC1(O)CN(C(=O)c2cccc(NC(=O)c3ccc(Nc4ccccn4)cc3)c2)C1 came out in this test?
0 (no)

Called result for Nc1nc2ccccc2n1CC(O)c1ccc(Cl)cc1Cl (centres undefined)
1 (yes)

Entry OC(Cn1cncn1)(Cn1cncn1)c1ccc(F)cc1F : call = ?
1 (yes)

Test call, this compound: CC(C)(C)Nc1ncc2nc(Nc3cc(Cl)cc(C(F)(F)F)c3)n([C@H]3C[C@H](N)C3)c2n1
1 (yes)

Given CC(C)Nc1ncc2nc(Nc3cc(Cl)cc(C(F)(F)F)c3)n(C3CCNCC3)c2n1 , state the outcome it received in this test.
1 (yes)

Which outcome was assigned to CC(C)Nc1ncc2nc(Nc3cc(C(F)(F)F)cc(C(F)(F)F)c3)n(C3CCNCC3)c2n1 in this test?
0 (no)

Please share the test call associated with OCCN1CCc2nc(NCc3ccc(F)cc3F)nc(NC34CC(C3)C4)c2CC1 .
1 (yes)

What did this assay record as the result for COc1ccc(C(=O)N2CCC3(CC2)C(=O)N(CC(=O)NCC2CCCCC2)CN3c2ccccc2)c(OC)c1 ?
0 (no)

Per the assay record, what outcome was assigned to CCOc1ccccc1NC(=O)Cn1c(=O)n(Cc2ccccc2)c(=O)c2c(C)c(C(=O)N(C)C)sc21 ?
0 (no)

Could you kindly confirm the outcome this assay logged for COc1cccc2c1CCCC2CCCN1CCN(C2CCCCC2)CC1 (centres undefined) ?
0 (no)

Could you please tell me the result logged for O=C(NC1(CO)CCOCC1)c1cc2ccc(C(F)(F)F)cc2[nH]1 in this assay?
0 (no)

Please state the recorded outcome for this compound: CN(C)CCn1cnc2sc3c(c2c1=O)CCC(NCc1cccc(Cl)c1)C3 (centres undefined)
1 (yes)

// return assay outcome for c1ccc(Nc2cc(Nc3cc(-c4ccccc4)[nH]n3)nc3ccnn23)cc1
1 (yes)

What classification did O=C(c1ccc(Nc2nccc(-c3ccc(Cl)cc3)n2)cc1)N1CC[C@@H](CO)C1 end up with in this test?
0 (no)
